# target entity: T1, recombinant biotinylated PD-L1 (rhPD-L1/Fc Chimera, R&D Systems 156-B7) (human, UniProt Q9NZQ7 19-238, biotinylated (sites not given))
# T1 construct: Bought Fc chimera; also called human PD-L1
# T1 sequence (Q9NZQ7 19-238, change not shown): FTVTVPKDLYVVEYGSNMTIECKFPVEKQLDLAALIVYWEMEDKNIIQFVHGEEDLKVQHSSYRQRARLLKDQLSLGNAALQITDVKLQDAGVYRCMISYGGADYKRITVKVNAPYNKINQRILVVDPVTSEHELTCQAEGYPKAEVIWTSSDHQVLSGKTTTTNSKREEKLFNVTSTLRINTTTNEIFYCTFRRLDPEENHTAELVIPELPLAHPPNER
# test method notes: ELISA, lysate on plate-bound antigen
Below is a list of entries, each paired with its recorded ELISA PD-L1 Fc (RSU) value.
Provide the reading as a plain figure in RSU.

binder	ELISA PD-L1 Fc (RSU)
ISOP194AR9P1G7 (designed binder, not shown: small tags and cut ends, FN3 domain; E. coli lysate in the ELISA) LPAPKNLVVSRVTEDSARLSWGDDFNSEYFDSFLIQYQESEKVGEAIVLTVPGSERSYDLTGLKPGTEYTVSIYGVYTRAVVFTSNPLSAIFTT	1.59e+07

Then this binder:
Input: Entry ISOP121GR5P1A2 (designed binder, not shown: small tags and cut ends, FN3 domain; E. coli lysate in the ELISA) LPAPKNLVVSRVTEDSARLSWTAPDAAFDSFKIQYIERYIPGEAIQLNVPGSERSYDLTGLKPGTEYSVIIPGVKGGRNSFPLWAWFTT : reported ELISA PD-L1 Fc (RSU) = ?
Output: 61700
